Molecular target: HLA-B*54:01
Experiment: IEDB peptide-MHC binding, purified MHC/competitive/radioactivity; filed as Kd, often an IC50 or EC50 that approximates it; bounds were set here for any values at or beyond the usual limits of such assays
Details: source organism: Vaccinia virus Copenhagen
measured.property: Kd (µM)
Give a bare numeral; the unit µM is implied.

Considering FLIVSLCPT , its Kd with HLA-B*54:01 was recorded as 0.359

====

Target: HLA-C*06:02
Assay: IEDB peptide-MHC binding, purified MHC/competitive/fluorescence; filed as Kd, often an IC50 or EC50 that approximates it; bounds were set here for any values at or beyond the usual limits of such assays
Conditions: source organism: Entamoeba histolytica HM-1:IMSS
measured.property: Kd (nM)
Please give a number only; it is taken to be in nM.

Field Kd (entry KLMPGSIYV ) reads 1170
